Cited source for all entries: ChEMBL document CHEMBL1800057

# Tested on: Liver
# Measurement Protocol: Half life in mouse liver microsomes assessed as formation of oxidation product and glucuronide conjugate
# Format: ADME, Microsome
Reported Endpoint: t1/2

Answered examples (2):
INSERT INTO results (line_notation, test_target, reported_endpoint, value_measured) VALUES
  ('O=c1cc(Cn2c(C3CCC3)nc3cccnc32)c2ccc(F)c(F)c2[nH]1', 'Liver', 't1/2', '0.833 h'),
  ('O=c1cc(Cn2c(CC3CC3)nc3ccccc32)c2ccc(F)c(F)c2[nH]1', 'Liver', 't1/2', '> 2 h');

[in] Answer with the recorded t1/2 of Cc1cnccc1-c1nc2ccccc2n1Cc1cc(=O)[nH]c2c(F)c(F)ccc12 only.
[out] > 2 h
